Data provenance: ChEMBL document CHEMBL1123193

Tested on: Escherichia coli
Experiment: Minimum inhibitory concentration compared to D-cycloserine, against Escherichia coli ATCC 9637
Assay type: functional
readout.name: MIC (µg/mL)
Answers are plain numbers, in µg/mL.

Recorded MIC, per entry:
[
  {
    "molecule": "C=C(C[C@@H](N)C(=O)O)C[C@@H](N)C(=O)O.C=C(C[C@H](N)C(=O)O)C[C@H](N)C(=O)O",
    "MIC, µg/mL": 16
  },
  {
    "molecule": "N[C@@H]1CONC1=O [CYCLOSERINE]",
    "MIC, µg/mL": 0.5
  },
  {
    "molecule": "C=C(CC(N)C(=O)O)CC(N)C(=O)O (stereo in doubt; 4)",
    "MIC, µg/mL": 32
  }
]

Per the records, this molecule ( `C=C(C[C@@H](N)C(=O)O)C[C@H](N)C(=O)O` ) has MIC equal to 32
